target: Glutamate NMDA receptor; experiment: Inhibition of [3H]-TCP binding to NMDA receptors on rat brain membranes.
I'd appreciate it if you could supply log10 IC50 values for the items below.
Lab note - IC50 converted to log10 from values in µM.

log10 IC50 for CN1Cc2ccccc2C12CCCc1ccccc12 (configuration not stated) ?
0.18

And then CN1Cc2ccccc2C12CCCc1sccc12.O=C(O)C(=O)O (configuration not stated) , what is it?
-0.31

And then COc1ccc2c(c1)C1(CCCCc3ccccc31)N(C)C2 (configuration not stated) , what is it?
0.43

And then CN1Cc2ccc(O)cc2C12CCCc1ccccc12 (configuration not stated) , what is it?
-0.70

And then CCCN1Cc2ccccc2C12CCc1ccccc12 (configuration not stated) , what is it?
-0.36

And then CN1Cc2ccccc2C12CCCCc1ccccc12 (configuration not stated) , what is it?
0.23

And then c1ccc2c(c1)CCCC21NCc2ccccc21 (configuration not stated) , what is it?
-0.05

And then CN1Cc2ccccc2C12CCc1ccccc12 (configuration not stated) , what is it?
-1.19

And then COc1ccc2c(c1)C1(CCCc3ccccc31)NC2 (configuration not stated) , what is it?
0.60

And then CN1Cc2ccc(O)cc2C12CCCCc1ccccc12 (configuration not stated) , what is it?
-0.80

And then COc1cccc2c1CCC21NCc2ccccc21 (configuration not stated) , what is it?
0.70

And then CCCN1Cc2ccccc2C12CCCc1sccc12 (configuration not stated) , what is it?
0.18

And then c1ccc2c(c1)CCC21NCc2ccccc21 (configuration not stated) , what is it?
-0.01

And then CCCN1Cc2ccccc2C12CCCc1ccccc12 (configuration not stated) , what is it?
0.20

And then Oc1cccc2c1CCC21NCc2ccccc21 (configuration not stated) , what is it?
-0.14

And then c1ccc2c(c1)CNC21CCCc2sccc21 (configuration not stated) , what is it?
-0.22

And then COc1ccc2c(c1)C1(CCCc3ccccc31)N(C)C2 (configuration not stated) , what is it?
-0.10

And then CCCN1Cc2ccc(OC)cc2C12CCCCc1ccccc12 (configuration not stated) , what is it?
1.23

And then CCCN1Cc2ccccc2C12CCCCc1ccccc12 (configuration not stated) , what is it?
1.23

And then c1ccc2c(c1)CCCCC21NCc2ccccc21 (configuration not stated) , what is it?
0.23

And then COc1ccc2c(c1)C1(CCCCc3ccccc31)NC2 (configuration not stated) , what is it?
0.68

And then Oc1ccc2c(c1)C1(CCCc3ccccc31)NC2 (configuration not stated) , what is it?
-0.62
